Record: IC50 reported on c-Rel protein (Homo sapiens).
Sequence (Q04864 whole entry): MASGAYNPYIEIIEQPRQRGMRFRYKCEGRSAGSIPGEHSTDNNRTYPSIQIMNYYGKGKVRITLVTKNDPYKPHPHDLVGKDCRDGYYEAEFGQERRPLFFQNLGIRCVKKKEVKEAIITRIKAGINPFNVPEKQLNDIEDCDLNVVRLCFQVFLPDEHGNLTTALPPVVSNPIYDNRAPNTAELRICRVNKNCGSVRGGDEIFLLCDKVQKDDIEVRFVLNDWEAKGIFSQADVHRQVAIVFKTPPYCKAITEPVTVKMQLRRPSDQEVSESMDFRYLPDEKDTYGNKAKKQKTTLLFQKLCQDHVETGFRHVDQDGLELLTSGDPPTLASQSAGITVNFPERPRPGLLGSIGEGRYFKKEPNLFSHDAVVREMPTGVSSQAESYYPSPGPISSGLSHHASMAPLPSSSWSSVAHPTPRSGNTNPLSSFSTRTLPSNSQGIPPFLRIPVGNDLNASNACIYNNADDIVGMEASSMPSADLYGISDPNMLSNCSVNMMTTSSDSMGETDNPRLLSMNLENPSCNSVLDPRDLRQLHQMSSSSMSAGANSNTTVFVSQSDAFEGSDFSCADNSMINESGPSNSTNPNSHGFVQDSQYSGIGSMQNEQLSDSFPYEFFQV

Solved cases (2 shown):
CC(C)CCCOc1ccc2cc3c(=O)[nH]c(=O)nc-3oc2c1F
< 1 µM
COCCOCCOc1cc2oc3nc(=O)[nH]c(=O)c-3cc2cc1F
< 1 µM

Request: Notebook entry, c-Rel protein (Homo sapiens) assay: IC50 of "CC(C)COc1ccc2cc3c(=O)[nH]c(=O)nc-3oc2c1" = ?
Result: < 1 µM

Request: Look up IC50 with c-Rel protein (Homo sapiens) for this molecule: "COc1cc(Cl)cc2cc3c(=O)[nH]c(=S)nc-3oc12"
Result: < 2 µM

Request: Look up IC50 with c-Rel protein (Homo sapiens) for this molecule: "CC(C)CCOc1ccc2cc3c(=O)[nH]c(=O)nc-3oc2c1Cl"
Result: < 0.5 µM

----------
System: JHH5
Experiment: CellTiter-Glo IG50, Example 9 HCC panel, JHH5
Format: cell-based
Settings: JHH5, 72 hours
VALUE KIND: pIC50
Scale note: pIC50 = -log10(concentration in M).

CCCCCOc1ccc2cc3c(=O)[nH]c(=O)nc-3oc2c1Cl [IT-843]
4.88
CC(C)(C)CCOc1ccc2cc3c(=O)[nH]c(=O)nc-3oc2c1Cl [IT-845]
5.09
COCCOCCOc1ccc2cc3c(=O)[nH]c(=O)nc-3oc2c1Cl [IT-876]
5.07
CCCCCCOc1ccc2cc3c(=O)[nH]c(=O)nc-3oc2c1Cl [IT-848]
4.89
CNC(=O)c1cc(Oc2ccc(NC(=O)Nc3ccc(Cl)c(C(F)(F)F)c3)cc2)ccn1 [Sorafenib, sorafenib, reference compound]
5.49

Request: Please report the recorded pIC50 for O=C(O)CCCCCOc1ccc2cc3c(=O)[nH]c(=O)nc-3oc2c1Cl [IT-855] .
Result: 5.09

----------
System: MCF-7
Assay: CellTiter-Glo IG50, Example 8, MCF-7
Type: cell-based
Conditions: Homo sapiens, MCF7, MCF-7, 72 hours
Experimental: Various pancreatic, liver, colon, breast, and stomach cancer cell lines were exposed to the NF-κB inhibitors of the present invention, including, for example, IT-839, IT-843, IT-848, and IT-878, and assessed for IG50 in the CellTiter Glo 2.0 assay. […] The cells were harvested during the logarithmic growth period and counted. […] CellTiter-Glo (CTG) solution was thawed and equilibrated to room temperature. […] Cells were incubated for 10 minutes before luminescence signal was recorded using Envision. […]
VALUE KIND: IC50 (µM)
Give the value, in units of µM, as a plain number.

CCCCCCOc1ccc2cc3c(=O)[nH]c(=O)nc-3oc2c1Cl [IT-848]
5.19

--- query ---
Request: What does the record list as IC50 for CCCCCOc1ccc2cc3c(=O)[nH]c(=O)nc-3oc2c1Cl [IT-843] ?
Result: 6.81

----------
Tested on: PLC/PRF/5
Test: CellTiter-Glo IG50, Example 8, PLC/PRF/5
Format: cell-based
Conditions: Homo sapiens, PLC/PRF/5, 72 hours
pIC50: −log10 of the molar value.
VALUE KIND: pIC50

The examples below pair each entry with its known result.
CNC(=O)c1cc(Oc2ccc(NC(=O)Nc3ccc(Cl)c(C(F)(F)F)c3)cc2)ccn1 [Sorafenib, sorafenib, reference compound]
4.97
COCCCCOc1ccc2cc3c(=O)[nH]c(=O)nc-3oc2c1Cl
< 4.80
CCCCCOc1ccc2cc3c(=O)[nH]c(=O)nc-3oc2c1Cl
< 4.80
CCCCCCOc1ccc2cc3c(=O)[nH]c(=O)nc-3oc2c1Cl
< 4.80

Pending compound:
Request: // pIC50 lookup, key: "CC(C)CCCOc1cc2oc3nc(=O)[nH]c(=O)c-3cc2cc1F"
Result: < 4.80
